Method summary: chemical genetic growth profiling, strain panel (AID 1159580);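 further: tested at 20 µM; growth read once vehicle control cultures reached saturation at 30 °C; lower values mean less growth of the strain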
Cond: S. cerevisiae deletion strains, growth OD, locus YLR262C, strain YPT6, stronger effect = lower value
The whole screen tested about 5,500 compounds, of which about 2,000 (36%) were called active. Another 18% or so got no clear call; they are omitted. The list shows a part of the results.
Lab note: anything with normalized growth below 0.9 is marked criterion met; values at 0.9 or higher are marked criterion not met.

{"columns": ["Molecule", "Discrete label"],
 "data": [
  ["Cc1cc(OC(=O)c2c(C)cc(OC(=O)c3c(C)cc(O)cc3O)cc2O)cc(O)c1C(=O)O", "criterion not met"],
  ["CCOC(=O)c1sc(SC(C)C)c2c1CCCC2=O", "criterion met"],
  ["CC12CCC3c4ccc(OCc5ccccc5)cc4CCC3C1C[C@@H](O)[C@@H]2O (stereo partly drawn)", "criterion met"],
  ["COc1ccc2c(c1)CCC1C2CCC2(C)C1C[C@@H](O)C2O (stereo partly drawn)", "criterion not met"],
  ["CC(C)c1c(O)ccc2c1CCC1[C@@](C)(CO)CCC[C@]21C (stereo partly drawn)", "criterion met"]
]}

Is 0.9 strictly greater than the molecule's reported normalized growth? molecule: `N#Cc1ccc(-c2csc(-c3ccc(Oc4ccc(C(F)(F)F)cn4)cc3)n2)cc1` criterion not met
